- ASSAY_DETAILS: Probe fluorescence ratio response to stearic acid relative to ADIFAB2
- Format: binding
- MEASUREMENT_CONDITIONS: response relative to ADIFAB2
ASSAY_ENDPOINT: DR/DR SA

*Q* # return recorded DR/DR SA for input 14L 18S 31L 73V 117A 72A (protein, listed as Rattus norvegicus, PEPTIDE (1)...(131) wild-type rat intestinal fatty acid binding protein) AFDGTWKVDRNENLEKFSEKMGINVVKRKLLAHDNLKLTITQEGNKFTVKESSNFRNIDVVFELGVDFAYSAVDGTELTGTWTMEGNKLVGKFKRVDNGKELIAVREISGNELIQTATYEGVEAKRIFKKE
*A* 0.007

*Q* # return recorded DR/DR SA for input 72S 73V 74A (protein, listed as Rattus norvegicus, PEPTIDE (1)...(131) wild-type rat intestinal fatty acid binding protein) AFDGTWKVDRNENYEKFMEKMGINVVKRKLGAHDNLKLTITQEGNKFTVKESSNFRNIDVVFELGVDFAYSSVAGTELTGTWTMEGNKLVGKFKRVDNGKELIAVREISGNELIQTYTYEGVEAKRIFKKE
*A* 1.572

Continue with the next molecule.
*Q* # return recorded DR/DR SA for input 14L 18I 31L 73F 117A 72A (protein, listed as Rattus norvegicus, PEPTIDE (1)...(131) wild-type rat intestinal fatty acid binding protein) AFDGTWKVDRNENLEKFIEKMGINVVKRKLLAHDNLKLTITQEGNKFTVKESSNFRNIDVVFELGVDFAYSAFDGTELTGTWTMEGNKLVGKFKRVDNGKELIAVREISGNELIQTATYEGVEAKRIFKKE
*A* 0.077
